Overview of reported IC50 across a group of molecules:
test system: HepG2 (human hepatocellular carcinoma); test: Cytotoxic activity, MTT assay, HepG2; format: cell-based; conditions: 72 h, mean ±SD
experimental endpoint: IC50 (µM)

[[record]]
compound_structure_string = "C=C(C)[C@@H]1CC[C@]2(C(=O)n3ccnc3)CC[C@]3(C)[C@H](CC[C@@H]4[C@@]5(C)C=C(O)C(=O)C(C)(C)[C@@H]5CC[C@]43C)[C@@H]12"
value_units = "µM"
relation_operator = "="
test_value = 6.5

[[record]]
compound_structure_string = "C=C(C)[C@@H]1CC[C@]2(COC(=O)n3ccnc3C)CC[C@]3(C)[C@H](CC[C@@H]4[C@@]5(C)CC[C@H](O)C(C)(C)[C@@H]5CC[C@]43C)[C@@H]12"
value_units = "µM"
relation_operator = "="
test_value = 8.1

[[record]]
compound_structure_string = "C=C(C)[C@@H]1CC[C@]2(COC(C)=O)CC[C@]3(C)[C@H](CC[C@@H]4[C@@]5(C)CC[C@H](OC(=O)n6ccnc6C)C(C)(C)[C@@H]5CC[C@]43C)[C@@H]12"
value_units = "µM"
relation_operator = ">"
test_value = 30

[[record]]
compound_structure_string = "C=C(C)[C@@H]1CC[C@]2(COC(=O)n3ccnc3)CC[C@]3(C)[C@H](CC[C@@H]4[C@@]5(C)CC[C@H](O)C(C)(C)[C@@H]5CC[C@]43C)[C@@H]12"
value_units = "µM"
relation_operator = "="
test_value = 4.2

[[record]]
compound_structure_string = "C=C(C)[C@@H]1CC[C@]2(C(=O)n3ccnc3)CC[C@]3(C)[C@H](CC[C@@H]4[C@@]5(C)CC[C@H](OC(=O)n6ccnc6)C(C)(C)[C@@H]5CC[C@]43C)[C@@H]12"
value_units = "µM"
relation_operator = "="
test_value = 2.9


###

Collected Phase of cell cycle (% of cells) S values appear next to each entry.
system: HeLa cells; assay: Cell cycle analysis by flow cytometry (FACS, PI), HeLa; type: cell-based, human; settings: compound at its IC50, 72 h
experimental endpoint: Phase of cell cycle (% of cells) S

[[record]]
compound = "C=C(C)[C@@H]1CC[C@]2(C(=O)O)CC[C@]3(C)[C@H](CC[C@@H]4[C@@]5(C)CC[C@H](O)C(C)(C)[C@@H]5CC[C@]43C)[C@@H]12 [Compound 2, Betulinic acid, reference compound]"
test_value = "21.4 ± 0.9 % of cells"

[[record]]
compound = "C=C(C)[C@@H]1CC[C@]2(C(=O)n3ccnc3)CC[C@]3(C)[C@H](CC[C@@H]4[C@@]5(C)C=CC(=O)C(C)(C)[C@@H]5CC[C@]43C)[C@@H]12"
test_value = "25.6 ± 1.5 % of cells"

[[record]]
compound = "C=C(C)[C@@H]1CC[C@]2(CO)CC[C@]3(C)[C@H](CC[C@@H]4[C@@]5(C)CC[C@H](OC(=O)n6ccnc6)C(C)(C)[C@@H]5CC[C@]43C)[C@@H]12"
test_value = "36.4 ± 2.4 % of cells"

[[record]]
compound = "C=C(C)[C@@H]1CC[C@]2(C(=O)n3ccnc3)CC[C@]3(C)[C@H](CC[C@@H]4[C@@]5(C)CCC(=O)C(C)(C)[C@@H]5CC[C@]43C)[C@@H]12"
test_value = "33.1 ± 0.9 % of cells"

